The following compounds are listed with their measured melting point values.

| compound | melting point, °C |
| --- | --- |
| Cc1cccc(N(C)C(=S)Oc2ccc3c(c2)CCC3)c1 | 94 |
| BrCCc1ccc(CCBr)cc1 | 73 |
| Cc1ccc2nc(O)cc(C)c2c1 | 240 |
| CC1C(=O)C23C(O)CC4C(C)(C)CC(O)CC4(C)C2CCC1C3O (stereo not given) | 377 |
| CC12CCC(C(C(Br)c3ccccc3)OC1=O)C2(C)C (stereo not given) | 141 |
| O=[N+]([O-])c1cc(S(=O)(=O)Cl)sc1Cl | 53 |
| Cc1cccc(C)c1NC(=O)c1cc(S(N)(=O)=O)c(Cl)cc1O | 256 |
| N#CCc1cccc([N+](=O)[O-])c1 | 63 |
| Nc1ccc(N)c2c1C(=O)c1c(N)ccc(N)c1C2=O | 285 |
| O=C(CCl)Oc1ccccc1 | 44.5 |
| COc1ccccc1C(=S)N1CCCCC1 | 85 |
| O=[N+]([O-])c1ccccc1Sc1ccccc1 | 82 |
| CC(C)(C)OC(=O)Nc1ccccn1 | 93 |
| C/C(=N\NC(N)=O)C1=CC[C@]2(C)C3CCC4=C(CCC4(C)C)C3CC[C@H]2C1 (stereo not given in full) | 239 |
| O=C(O)C(F)F | -1 |
| O=C(OCC(O)CO)c1ccccc1Nc1ccnc2c(C(F)(F)F)cccc12 (stereo not given) | 180 |
| CC1CC2C3CC(F)C4=CC(=O)C=CC4(C)C3(F)C(O)CC2(C)C1C(=O)CO (stereo not given) | 242 |

====

// values below are reported melting point

| cpdSmiles | melting point |
| --- | --- |
| Nc1ccc(Br)c(Cl)c1Cl | 75 to 77 °C |
| N=C(N)NS(=O)(=O)c1cc(C(F)(F)F)cc(C(F)(F)F)c1 | 194 to 197 °C |
| Cc1nn(-c2ccccc2)c(C)c1C(=O)Cl | 58 to 59 °C |
| COc1cc(CC(=O)O)cc(Br)c1O | 183 to 185 °C |
| BrC(=C(c1ccccc1)c1ccccc1)c1ccccc1 | 115 to 117 °C |

====

| compound | melting point |
| --- | --- |
| Cc1ccc(C(=O)[C@@H]2CCCC[C@H]2C(=O)O)cc1 (relative stereo) | 168 to 171 °C |
| Cc1noc(-c2ccc(CBr)cc2)n1 | 114 to 116 °C |
| Nc1cc(C(F)(F)F)ccc1N1CCOCC1 | 135 to 137 °C |
| ClCc1csc(-c2ccc(Cl)cc2)n1 | 78 to 79 °C |
| O=Cc1ccc(-n2ccnc2)cc1 | 142 to 145 °C |
| CC12CCC3C(CCC4CC(OC=O)CCC43C)C1CC=C2C#Cc1ccccc1 (stereo not given) | 179 to 180 °C |
| O=C(O)CCP(=O)(O)O | 165 to 166 °C |
| O=C(O)C(O)C(O)C(=O)Nc1ccc(Cl)cc1 (single isomer, unassigned; (+)) | 193 to 195 °C |
| Oc1ccnc2cc(C(F)(F)F)ccc12 | 266 to 270 °C |
| NC(=S)c1cccc(Cl)c1Cl | 121 to 123 °C |

====

# reported melting point; entries follow
readoutKind: melting point

| compound | result |
| --- | --- |
| COC(=O)c1sccc1Cl | 39 to 40 °C |
| NC(=O)c1sc2nnccc2c1N | 310 to 320 °C |
| CC(=O)NC1CC=CCC(NC(C)=O)CC=CC1 (stereo not drawn) | 267 to 277 °C |
| Cn1ncc2c(Cl)ncnc21 | 97 to 100 °C |
| CCSC(SCC)=C(C#N)c1ccccn1 | 160 to 162 °C |
| CNCc1nn(C)c2ccccc12 | 37 to 40 °C |
| NC(=O)C1C2C=CC(C2)C1N (stereo not drawn) | 235 to 253 °C |
| ClCC1CCN(c2ncnc3ccsc23)CC1 | 99 to 100 °C |
